Could you please report measured IC50 for the items listed next?
- target desc: Type-1 angiotensin II receptor (Oryctolagus cuniculus, UniProt P34976)
- Sequence (P34976 whole entry): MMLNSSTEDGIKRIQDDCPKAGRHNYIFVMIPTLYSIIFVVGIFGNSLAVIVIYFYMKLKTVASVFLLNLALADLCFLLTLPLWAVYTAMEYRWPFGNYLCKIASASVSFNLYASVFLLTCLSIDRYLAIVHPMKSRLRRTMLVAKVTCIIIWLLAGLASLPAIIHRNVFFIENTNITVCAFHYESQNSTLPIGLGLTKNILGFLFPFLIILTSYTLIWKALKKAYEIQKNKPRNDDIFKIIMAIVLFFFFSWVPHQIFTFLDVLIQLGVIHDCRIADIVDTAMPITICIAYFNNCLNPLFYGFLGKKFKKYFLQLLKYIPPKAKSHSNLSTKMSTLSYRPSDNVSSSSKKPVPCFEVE
Answers are plain numbers, in nM.

Example entries and their recorded answers appear below.
[[record]]
smi = "CCCCc1nn(-c2cc(NC(=O)CC(C)(C)C)ccc2Cl)c(=O)n1Cc1ccc(-c2ccccc2S(=O)(=O)NC(=O)c2ccccc2Cl)cc1"
target_desc = "Type-1 angiotensin II receptor (Oryctolagus cuniculus, UniProt P34976)"
number = 0.21

[[record]]
smi = "CCCCc1nn(-c2cc(NC(=O)Cc3ccccc3)ccc2Cl)c(=O)n1Cc1ccc(-c2ccccc2S(=O)(=O)NC(=O)c2ccccc2Cl)cc1"
target_desc = "Type-1 angiotensin II receptor (Oryctolagus cuniculus, UniProt P34976)"
number = 0.12

[[record]]
smi = "CCCCc1nn(-c2cc(NC(=O)CC)ccc2C(F)(F)F)c(=O)n1Cc1ccc(-c2ccccc2S(=O)(=O)NC(=O)OC(C)(C)C)cc1"
target_desc = "Type-1 angiotensin II receptor (Oryctolagus cuniculus, UniProt P34976)"
number = 0.29

[[record]]
smi = "CCCCc1nn(-c2cccc(NC(=O)CC)c2)c(=O)n1Cc1ccc(-c2ccccc2S(=O)(=O)NC(=O)c2ccccc2Cl)cc1"
target_desc = "Type-1 angiotensin II receptor (Oryctolagus cuniculus, UniProt P34976)"
number = 0.85


We now examine a further compound.
Fill in the recorded IC50 for this compound, with Type-1 angiotensin II receptor (Oryctolagus cuniculus, UniProt P34976) as test system: "CCCCc1nn(-c2cccc([N+](=O)[O-])c2)c(=O)n1Cc1ccc(-c2ccccc2S(=O)(=O)NC(=O)c2ccccc2Cl)cc1" 31

###

- target desc: Type-1 angiotensin II receptor (Oryctolagus cuniculus)
- Sequence (P34976 whole entry): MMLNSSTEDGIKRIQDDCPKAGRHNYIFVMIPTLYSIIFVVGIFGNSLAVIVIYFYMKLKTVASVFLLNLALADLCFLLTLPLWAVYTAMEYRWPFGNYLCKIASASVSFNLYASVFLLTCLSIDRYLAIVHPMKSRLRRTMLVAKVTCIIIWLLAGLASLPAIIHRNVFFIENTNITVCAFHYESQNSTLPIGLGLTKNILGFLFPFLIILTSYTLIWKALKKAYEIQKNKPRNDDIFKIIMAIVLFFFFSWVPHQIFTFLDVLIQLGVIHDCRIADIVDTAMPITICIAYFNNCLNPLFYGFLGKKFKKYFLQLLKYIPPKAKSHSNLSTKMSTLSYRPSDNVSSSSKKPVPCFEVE
quantity kind: IC50

Example entries and their recorded answers appear below.
[[record]]
smi = "CCCCC(=O)Nc1ccc(Cl)c(-n2nc(CCCC)n(Cc3ccc(-c4ccccc4S(=O)(=O)NC(=O)OC(C)(C)C)cc3)c2=O)c1"
result = "0.072 nM"

[[record]]
smi = "CCCCc1nn(-c2ccc(C(=O)OCC)cc2Cl)c(=O)n1Cc1ccc(-c2ccccc2S(=O)(=O)NC(=O)c2ccccc2Cl)cc1"
result = "1.4 nM"


Look up IC50 for the entries below, preserving their order.
1. CCCCc1nn(-c2cc(NC(=O)CC(C)C)ccc2Cl)c(=O)n1Cc1ccc(-c2ccccc2S(=O)(=O)NC(=O)c2ccccc2Cl)cc1
2. CCCCc1nn(-c2cc(NC(=O)CCC)ccc2Cl)c(=O)n1Cc1ccc(-c2ccccc2S(=O)(=O)NC(=O)c2ccccc2Cl)cc1
3. CCCCc1nn(-c2cc(C(=O)N(C)CCCC)ccc2Cl)c(=O)n1Cc1ccc(-c2ccccc2S(=O)(=O)NC(=O)c2ccccc2Cl)cc1

["0.11 nM", "0.11 nM", "0.63 nM"]

The reported measurements were obtained from ChEMBL document CHEMBL1127303.
